Cytochrome P450 2C9 (Homo sapiens): reported AC50 for various compounds.
Sequence (P11712 whole entry): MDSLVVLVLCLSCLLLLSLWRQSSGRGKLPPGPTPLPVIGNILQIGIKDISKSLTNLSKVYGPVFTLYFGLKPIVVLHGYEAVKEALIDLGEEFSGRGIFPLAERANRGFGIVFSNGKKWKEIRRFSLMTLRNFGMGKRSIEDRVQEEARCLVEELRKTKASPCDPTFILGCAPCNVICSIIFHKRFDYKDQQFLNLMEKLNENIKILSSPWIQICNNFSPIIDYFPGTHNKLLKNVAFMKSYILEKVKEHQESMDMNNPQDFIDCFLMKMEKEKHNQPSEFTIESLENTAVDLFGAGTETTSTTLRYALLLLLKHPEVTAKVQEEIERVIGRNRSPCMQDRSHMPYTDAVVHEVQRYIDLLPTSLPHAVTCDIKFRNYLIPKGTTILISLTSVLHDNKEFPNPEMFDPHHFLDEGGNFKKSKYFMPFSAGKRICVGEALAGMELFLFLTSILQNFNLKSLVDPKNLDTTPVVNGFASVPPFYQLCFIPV
propertyName: AC50

compound="O=Nc1c(-c2c(O)[nH]c3ccccc23)[nH]c2ccccc12 [INDIRUBIN-3-MONOXIME]" systemtested="Cytochrome P450 2C9 (Homo sapiens)" result="39.8 µM (inconclusive)"
compound=Nc1nnc(SCCOc2cccc(Br)c2)s1 systemtested="Cytochrome P450 2C9 (Homo sapiens)" result="15.8 µM (inconclusive)"
compound=COc1ccc(C(=O)COC(=O)c2ccc(NC(=O)c3ccccc3)cc2)cc1 systemtested="Cytochrome P450 2C9 (Homo sapiens)" result="1.41 µM (inconclusive)"
compound=Cc1ccc(-c2cc[nH]c(=S)n2)cc1 systemtested="Cytochrome P450 2C9 (Homo sapiens)" result="10 µM (inconclusive)"
compound="CNC(C)Cc1ccccc1Sc1ccc(O)cc1 (centres undefined)" systemtested="Cytochrome P450 2C9 (Homo sapiens)" result="28.2 µM (inconclusive)"
compound="O=C1C2CCCN2C(c2ccc(F)cc2)N1c1nccs1 (centres undefined)" systemtested="Cytochrome P450 2C9 (Homo sapiens)" result="35.5 µM (inconclusive)"
compound=CN(Cc1cc(Br)cc(Br)c1O)Cc1c(O)ccc2ccccc12 systemtested="Cytochrome P450 2C9 (Homo sapiens)" result="3.16 µM (inconclusive)"
compound=CC(=O)/C=C1\Nc2ccccc2OC1=O systemtested="Cytochrome P450 2C9 (Homo sapiens)" result="2.24 µM (inconclusive)"
compound="Nc1nc(NCCc2ccc(O)cc2)nc2nc(-c3ccco3)nn12 [ZM-241385]" systemtested="Cytochrome P450 2C9 (Homo sapiens)" result="39.8 µM (inconclusive)"
compound=CCCn1c2c(c(O)c(C(=O)NCc3ccccc3)c1=O)CCCC2 systemtested="Cytochrome P450 2C9 (Homo sapiens)" result="20 µM (inconclusive)"
compound="CC1CCCCN1c1cc(C#N)c(C#N)cc1[N+](=O)[O-] (centres undefined)" systemtested="Cytochrome P450 2C9 (Homo sapiens)" result="5.01 µM (inconclusive)"
compound=COc1cc(/C=N/NC(=O)c2cccnc2)ccc1OC(=O)c1ccc2c(c1)OCO2 systemtested="Cytochrome P450 2C9 (Homo sapiens)" result="7.94 µM (inconclusive)"
compound=Cn1cccc1C(=O)N1CCC2(CCCN(c3ccccn3)C2)CC1 systemtested="Cytochrome P450 2C9 (Homo sapiens)" result="25.1 µM (inconclusive)"
compound="CC12CCC(C(=O)Nc3ncc([N+](=O)[O-])s3)(OC1=O)C2(C)C (centres undefined)" systemtested="Cytochrome P450 2C9 (Homo sapiens)" result="11.2 µM (inconclusive)"
